meta.source: PubChem BioAssay AID248

- Test system: L1210 leukemia ip in BDF1 mice, survival T/C
- experiment.description: NCI In Vivo Anticancer Drug Screen. Data for tumor model L1210 Leukemia (intraperitoneal) in B6D2F1 (BDF1) mice
- run.parameters: endpoint: mean survival time; dose: 300.0 mg/kg/injection; schedule: Q01DX001 (ip); vehicle: saline; higher = longer survival
Toxic doses and inconclusive results are not listed.
endpoint.label: T/C

compound: O=C1Nc2ccc(Cl)cc2C1=O
endpoint.label: T/C
result: 93 % of control

compound: O=C1Nc2ccccc2C12CNCS2 (configuration not stated)
endpoint.label: T/C
result: 95 % of control

compound: NC(=O)Nc1ccc(/C=C2\C=Cc3ccccc32)cc1
endpoint.label: T/C
result: 94 % of control

compound: NCC1OC(OC2C(N)CC(N)C(O)C2OC2OC(CO)C(O)C2O)C(N)C(O)C1O (configuration not stated)
endpoint.label: T/C
result: 93 % of control

compound: CCCCCCCCCCCCCCCC(=O)N1CCCN(C(=O)CCCCCCCCCCCCCCC)C1
endpoint.label: T/C
result: 94 % of control

compound: CC(C)(Br)C(=O)C(C)(C)Br
endpoint.label: T/C
result: 92 % of control

compound: CCCCCCCCC1CCCC2C(C)CCC(C)C12 (configuration not stated)
endpoint.label: T/C
result: 104 % of control

compound: COC(=O)NC1CCCC1I (configuration not stated)
endpoint.label: T/C
result: 98 % of control

compound: Cc1cc(P(=O)(O)O)ccc1[N+](=O)[O-]
endpoint.label: T/C
result: 96 % of control

compound: Cc1ccc(Cl)cc1N=C=S
endpoint.label: T/C
result: 106 % of control

compound: COc1cc(O)c(/C=N\N=C\c2ccco2)c(OC)c1
endpoint.label: T/C
result: 86 % of control

compound: Cc1ccc(S(=O)(=O)NNC(=O)c2ccc[nH]2)cc1
endpoint.label: T/C
result: 96 % of control

###

Recorded T/C by entry
- System: L1210 leukemia ip in BDF1 mice, survival T/C
- experiment.description: NCI In Vivo Anticancer Drug Screen. Data for tumor model L1210 Leukemia (intraperitoneal) in B6D2F1 (BDF1) mice
- run.parameters: endpoint: mean survival time; dose: 200.0 mg/kg/injection; schedule: Q01DX001 (ip); vehicle: other; higher = longer survival
Inconclusive results and toxic doses are left out.
endpoint.label: T/C

compound: CCOC(=O)C(O)(C#CC(C)C)C1CCCCC1 (centres undefined)
result: 89 % of control
//
compound: COc1cccc2cc(C3(c4ccccc4)OC(=O)c4ccccc43)ccc12 (centres undefined)
result: 94 % of control
//
compound: O=C(C[P+](c1ccccc1)(c1ccccc1)c1ccccc1)c1ccc(Br)cc1
result: 103 % of control
//
compound: O=S(=O)(c1ccccc1)N1CC1CBr (centres undefined)
result: 100 % of control
//
compound: N#CC(c1ccccc1)c1ccccc1
result: 90 % of control
//
compound: CSc1[nH]c2ncnc(N)c2c1C#N
result: 101 % of control
//
compound: CSC(=NC1CCCCC1)Nc1ccccc1
result: 98 % of control
//
compound: S=C1NCC2CCc3c(ccc4ccccc34)N12 (centres undefined)
result: 90 % of control
//
compound: O=C(c1cccc([N+](=O)[O-])c1)c1ccc(O)cc1O
result: 95 % of control
//
compound: C[n+]1c(I)ccc2ccccc21
result: 105 % of control
//
compound: CS(=O)(=O)N(c1ccccc1)c1ccccc1[N+](=O)[O-]
result: 96 % of control
//
compound: CCCCn1c(=O)cc(C)c2ccccc21
result: 92 % of control
//
compound: O=C1C(Cl)=C(c2ccccc2)C(=O)C(Cl)=C1c1ccccc1
result: 88 % of control
//
compound: O=C(O)CC[S-].[Ag+]
result: 91 % of control
